test system: ATP; assay: switch fluorescence ratio, 500 uM ATP over buffer (Cy3 cluster intensity, sum of 5 cycles each) (fold (ratio)); higher = stronger signal-on switching upon ATP binding; sequences stand for … in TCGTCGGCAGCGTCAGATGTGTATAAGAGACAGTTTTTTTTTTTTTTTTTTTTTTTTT…TC; conditions: aptamer strand: ATP DNA aptamer (quencher-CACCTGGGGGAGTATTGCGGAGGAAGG + anchor), 100 nM annealed; ATP concentration: 500 uM;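 also: ATP exposure 15 min at 22 °C before imaging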
Where switch fluorescence ratio equals or exceeds 1, the correct label is Satisfied; where it does not, the label is Not satisfied.

# sequence-code, assigned-label
rows = [
    ("TTTTTGAGCA", "Satisfied"),
    ("GCATGGGGTG", "Satisfied"),
    ("GCATCCTGGA", "Not satisfied"),
    ("CAGTTCTCGT", "Not satisfied"),
    ("ACTATAAGAA", "Satisfied"),
    ("GTTACACTCA", "Satisfied"),
    ("TATACGTGCC", "Satisfied"),
    ("TTCAAGGGTT", "Satisfied"),
    ("CGGTGGTGTG", "Not satisfied"),
    ("ACAAATGGCA", "Satisfied"),
    ("TGATGCATAA", "Satisfied"),
    ("GATAGGTGGT", "Not satisfied"),
    ("AACGGTACGG", "Satisfied"),
    ("GAATTTTTGT", "Not satisfied"),
]
